All values here come from ChEMBL document CHEMBL1268844.

Below, each of the compounds is paired with its reported Activity value.
# ASSAY_TARGET: 11-beta-hydroxysteroid dehydrogenase 1 (Homo sapiens, UniProt P28845)
# Sequence (P28845 whole entry, looked up): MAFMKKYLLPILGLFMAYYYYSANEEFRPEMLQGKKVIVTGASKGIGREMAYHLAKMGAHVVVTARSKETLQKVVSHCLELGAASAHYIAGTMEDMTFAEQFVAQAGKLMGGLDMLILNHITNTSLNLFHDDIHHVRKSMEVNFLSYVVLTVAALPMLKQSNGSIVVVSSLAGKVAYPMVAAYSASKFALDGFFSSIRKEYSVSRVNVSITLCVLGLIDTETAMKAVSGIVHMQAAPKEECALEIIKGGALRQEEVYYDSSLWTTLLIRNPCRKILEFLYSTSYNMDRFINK
# TEST_METHOD_NOTES: Inhibition of human recombinant 11beta-HSD1 expressed in HEK293 cells assessed as residual conversion of [1,2-3H]-cortisone to cortisol at 0.2 uM by scintillation counting
# Format: cell-based
Enter your answer as a number in %; do not include the unit.

Solved cases below.
# SMILES_DATA, MEASURED_RESULT
data = [
    ("CON[C@@H]1CC[C@]2(C)[C@H]3C(=O)C=C4[C@@H]5C[C@@](C)(C(=O)O)CC[C@]5(C)CC[C@@]4(C)[C@]3(C)CC[C@H]2C1(C)C", 43),
    ("CON[C@H]1CC[C@]2(C)[C@H]3C(=O)C=C4[C@@H]5C[C@@](C)(C(=O)O)CC[C@]5(C)CC[C@@]4(C)[C@]3(C)CC[C@H]2C1(C)C", 33),
    ("CC1(C)[C@H](NS(C)(=O)=O)CC[C@]2(C)[C@H]3C(=O)C=C4[C@@H]5C[C@@](C)(C(=O)O)CC[C@]5(C)CC[C@@]4(C)[C@]3(C)CC[C@@H]12", 32),
    ("CN(O)C(=O)[C@@]1(C)CC[C@]2(C)CC[C@]3(C)C(=CC(=O)[C@@H]4[C@@]5(C)CC[C@H](NS(=O)(=O)C(F)(F)F)C(C)(C)[C@@H]5CC[C@]43C)[C@@H]2C1", 71),
    ("CN(O)C(=O)[C@@]1(C)CC[C@]2(C)CC[C@]3(C)C(=CC(=O)[C@@H]4[C@@]5(C)CC[C@@H](NS(=O)(=O)C(F)(F)F)C(C)(C)[C@@H]5CC[C@]43C)[C@@H]2C1", 88),
]

Req: Give the reported Activity for this compound. "CC(=O)N[C@H]1CC[C@]2(C)[C@H]3C(=O)C=C4[C@@H]5C[C@@](C)(C(=O)N(C)O)CC[C@]5(C)CC[C@@]4(C)[C@]3(C)CC[C@H]2C1(C)C"
Resp: 72

Req: Give the reported Activity for this compound. "CC1(C)[C@@H](NS(C)(=O)=O)CC[C@]2(C)[C@H]3C(=O)C=C4[C@@H]5C[C@@](C)(C(=O)O)CC[C@]5(C)CC[C@@]4(C)[C@]3(C)CC[C@@H]12"
Resp: 58

Req: Give the reported Activity for this compound. "CON(C)C(=O)[C@@]1(C)CC[C@]2(C)CC[C@]3(C)C(=CC(=O)[C@@H]4[C@@]5(C)CC[C@H](OC(C)=O)C(C)(C)[C@@H]5CC[C@]43C)[C@@H]2C1"
Resp: 95

Req: Give the reported Activity for this compound. "CON[C@H]1CC[C@]2(C)[C@H]3C(=O)C=C4[C@@H]5C[C@@](C)(C(=O)N(C)O)CC[C@]5(C)CC[C@@]4(C)[C@]3(C)CC[C@H]2C1(C)C"
Resp: 93
